System: K24384-001-R-PDC complex spheroid growth;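 further: percent of DMSO vehicle-treated spheroid viability set as 100%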
test name: Anticancer human tumor K24384-001-R-PDC patient-derived pancreatic adenocarcinoma cell line growth inhibition [AhR]
test parameters: second compound 0.316 µM; first compound 0.03 µM; stronger effect = lower value
Item-by-item account of viability, T/C
assay endpoint: viability, T/C

>  <compound>
CC(C)CC(NC(=O)C(Cc1ccccc1)NC(=O)c1cnccn1)B(O)O (stereo unspecified) + Cc1cncc(-c2nc(NCCc3c[nH]c4ccccc34)c3ncn(C(C)C)c3n2)c1

>  <assay endpoint>
viability, T/C

>  <val>
1.17%

$$$$
>  <compound>
O=C(C=Cn1cnc(-c2cc(C(F)(F)F)cc(C(F)(F)F)c2)n1)NNc1cnccn1 + Cc1ccccc1N=Nc1ccc(NC(=O)c2ccnn2C)c(C)c1

>  <assay endpoint>
viability, T/C

>  <val>
106%

$$$$
>  <compound>
CCN(c1cc(-c2ccc(CN3CCOCC3)cc2)cc(C(=O)NCc2c(C)cc(C)[nH]c2=O)c1C)C1CCOCC1 + Cc1cncc(-c2nc(NCCc3c[nH]c4ccccc34)c3ncn(C(C)C)c3n2)c1

>  <assay endpoint>
viability, T/C

>  <val>
139%

$$$$
>  <compound>
CC(C)CC(NC(=O)C(Cc1ccccc1)NC(=O)c1cnccn1)B(O)O (stereo unspecified) + Cc1ccccc1N=Nc1ccc(NC(=O)c2ccnn2C)c(C)c1

>  <assay endpoint>
viability, T/C

>  <val>
1.07%

$$$$
>  <compound>
CCN(c1cc(-c2ccc(CN3CCOCC3)cc2)cc(C(=O)NCc2c(C)cc(C)[nH]c2=O)c1C)C1CCOCC1 + CC(CO)NC(=O)c1cc(-c2ccc(Cl)cc2)nn(-c2cnn(C)c2)c1=O

>  <assay endpoint>
viability, T/C

>  <val>
135%

$$$$
>  <compound>
CCc1c2c(nc3ccc(O)cc13)-c1cc3c(c(=O)n1C2)COC(=O)[C@]3(O)CC + Cc1cncc(-c2nc(NCCc3c[nH]c4ccccc34)c3ncn(C(C)C)c3n2)c1

>  <assay endpoint>
viability, T/C

>  <val>
35.9%

$$$$
